# System: Pseudomonas aeruginosa
# experiment-notes: Antimicrobial activity against Pseudomonas aeruginosa at 25 ug/ml by agar plate diffusion technique
# Type: functional
# test-conditions: read-out: IZ
We use 8 mm as the dividing line for zone of inhibition at 25 µg/mL: on or above the line is y, below is n.

*Q* Reported zone of inhibition at 25 µg/mL reaches at least 8 mm for COc1ccc(-c2nc(NN)n(C)c(=O)c2C#N)cc1 ?
*A* n

*Q* Reported zone of inhibition at 25 µg/mL reaches at least 8 mm for CSc1nc(-c2ccccc2F)c(C#N)c(=O)n1C ?
*A* y

*Q* Reported zone of inhibition at 25 µg/mL reaches at least 8 mm for CCOC(=O)c1cnn(-c2nc(-c3ccccc3Cl)c(C#N)c(=O)n2C)c1N ?
*A* y

*Q* Reported zone of inhibition at 25 µg/mL reaches at least 8 mm for Cn1c(NN)nc(-c2ccccc2Cl)c(C#N)c1=O ?
*A* y

*Q* Reported zone of inhibition at 25 µg/mL reaches at least 8 mm for Cn1c(NN)nc(-c2ccc(Cl)cc2)c(C#N)c1=O ?
*A* n

*Q* Reported zone of inhibition at 25 µg/mL reaches at least 8 mm for CSc1nc(-c2ccccc2O)c(C#N)c(=O)n1C ?
*A* n

*Q* Reported zone of inhibition at 25 µg/mL reaches at least 8 mm for CSc1nc(-c2ccc(Cl)cc2)c(C#N)c(=O)n1C ?
*A* y

*Q* Reported zone of inhibition at 25 µg/mL reaches at least 8 mm for CN(C)c1ccc(-c2nc(NN)n(C)c(=O)c2C#N)cc1 ?
*A* n

*Q* Reported zone of inhibition at 25 µg/mL reaches at least 8 mm for CCOC(=O)c1cnn(-c2nc(-c3ccc(N(C)C)cc3)c(C#N)c(=O)n2C)c1N ?
*A* y

*Q* Reported zone of inhibition at 25 µg/mL reaches at least 8 mm for CSc1nc(-c2cccc(O)c2O)c(C#N)c(=O)n1C ?
*A* n
